The origin of these recorded values is patent US20240309109A1.

- target under test: T1, human CD38 Fc-fusion aa 45-300 (human, UniProt P28907 45-300)
- T1 construct: Expressed in HEK293 behind a human Vkappa leader, which is left out here; also called CD38-Fc fusion protein; CD38 Fc-Fusion protein
- test description: ELISA on CD38 Fc-fusion protein, IgG format
endpoint name: ELISA CD38 Fc-Fusion protein (% Reactivity of MOR03087) (%)
Express the result in % but write the number alone.

Noted for MOR06183 IgG (antibody, V domains shown) VH: QVQLVESGGGLVQPGGSLRLSCAASGFTFSSYYMNWVRQAPGKGLEWVSGINMESTRIYYADSVKGRFTISRDNSKNTLYLQMNSLRAEDTAVYYCARDLPLVYTGFAYWGQGTLVTVSS VL: DIELTQPPSVSVAPGQTARISCSGDNLRHYYVYWYQQKPGQAPVLVIYGDSKRPSGIPERFSGSNSGNTATLTISGTQAEDEADYYCQTYTGGASLVFGGGTKLTVLG : its ELISA CD38 Fc-Fusion protein (% Reactivity of MOR03087) reads 106

The binder listed as MOR06185 IgG (antibody, V domains shown) VH: QVQLVESGGGLVQPGGSLRLSCAASGFTFSSYYMNWVRQAPGKGLEWVSAISMNGDYISYADSVKGRFTISRDNSKNTLYLQMNSLRAEDTAVYYCARDLPLVYTGFAYWGQGTLVTVSS VL: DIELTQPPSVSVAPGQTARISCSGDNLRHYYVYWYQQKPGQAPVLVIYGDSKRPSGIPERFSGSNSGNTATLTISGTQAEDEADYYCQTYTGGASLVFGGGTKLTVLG shows ELISA CD38 Fc-Fusion protein (% Reactivity of MOR03087) equal to 142

The binder listed as MOR06187 IgG (antibody, V domains shown) VH: QVQLVESGGGLVQPGGSLRLSCAASGFTFSSYYMNWVRQAPGKGLEWVSAISSNGDITYYADSVKGRFTISRDNSKNTLYLQMNSLRAEDTAVYYCARDLPLVYTGFAYWGQGTLVTVSS VL: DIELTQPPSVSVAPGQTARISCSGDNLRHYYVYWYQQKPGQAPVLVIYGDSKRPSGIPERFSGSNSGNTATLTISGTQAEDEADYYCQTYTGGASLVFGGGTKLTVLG shows ELISA CD38 Fc-Fusion protein (% Reactivity of MOR03087) equal to 145

Input MOR06195 IgG (antibody, V domains shown, copies: 2 + 2) VH: QVQLVESGGGLVQPGGSLRLSCAASGFTFSSYYMNWVRQAPGKGLEWVSAISGNGGHTYYADSVKGRFTISRDNSKNTLYLQMNSLRAEDTAVYYCARDLPLVYTGFAYWGQGTLVTVSS VL: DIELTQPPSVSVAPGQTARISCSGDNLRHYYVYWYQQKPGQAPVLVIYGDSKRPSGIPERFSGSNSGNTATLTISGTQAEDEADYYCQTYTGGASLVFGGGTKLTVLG . Output ELISA CD38 Fc-Fusion protein (% Reactivity of MOR03087): 155

Input MOR06188 IgG (antibody, V domains shown) VH: QVQLVESGGGLVQPGGSLRLSCAASGFTFSSYYMNWVRQAPGKGLEWVSAISTNGWQTYYADSVKGRFTISRDNSKNTLYLQMNSLRAEDTAVYYCARDLPLVYTGFAYWGQGTLVTVSS VL: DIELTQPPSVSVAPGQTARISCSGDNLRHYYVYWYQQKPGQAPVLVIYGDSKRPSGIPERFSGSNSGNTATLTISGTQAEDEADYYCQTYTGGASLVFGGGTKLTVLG . Output ELISA CD38 Fc-Fusion protein (% Reactivity of MOR03087): 140

Looking up MOR06214 IgG (antibody, V domains shown, copies: 2 + 2) VH: QVQLVESGGGLVQPGGSLRLSCAASGFTFSSYAMNWVRQAPGKGLEWVSNIQRVGSTYYADSVKGRFTISRDNSKNTLYLQMNSLRAEDTAVYYCAREDGSYMTDYFAYWGQGTLVTVSS VL: DIELTQPPSVSVAPGQTARISCSGDNIGHYYVSWYQQKPGQAPVLVIYSDSNRPSGIPERFSGSNSGNTATLTISGTQAEDEADYYCQSYNGTYVFGGGTKLTVLG , I see its ELISA CD38 Fc-Fusion protein (% Reactivity of MOR03087) listed as 109

The binder listed as MOR06197 IgG (antibody, V domains shown, copies: 2 + 2) VH: QVQLVESGGGLVQPGGSLRLSCAASGFTFSSYYMNWVRQAPGKGLEWVSAISMDGVYKYYADSVKGRFTISRDNSKNTLYLQMNSLRAEDTAVYYCARDLPLVYTGFAYWGQGTLVTVSS VL: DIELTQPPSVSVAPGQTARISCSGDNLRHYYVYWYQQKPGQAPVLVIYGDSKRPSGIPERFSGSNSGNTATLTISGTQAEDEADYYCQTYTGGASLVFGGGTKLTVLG has a reported ELISA CD38 Fc-Fusion protein (% Reactivity of MOR03087) of 138

What the record says about MOR03088 IgG (antibody, V domains shown) VH: QVQLVESGGGLVQPGGSLRLSCAASGFTFSSYAMNWVRQAPGKGLEWVSGISSWGSSTYYADSVKGRFTISRDNSKNTLYLQMNSLRAEDTAVYYCAREDGSYMTDYFAYWGQGTLVTVSS VL: DIELTQPPSVSVAPGQTARISCSGDNIGHYYVSWYQQKPGQAPVLVIYSDSNRPSGIPERFSGSNSGNTATLTISGTQAEDEADYYCQSYNGTYVFGGGTKLTVLG : ELISA CD38 Fc-Fusion protein (% Reactivity of MOR03087) is 18

According to the records, this binder MOR06204 IgG (antibody, V domains shown, copies: 2 + 2) VH: QVQLVESGGGLVQPGGSLRLSCAASGFTFSSYAMNWVRQAPGKGLEWVSHIRKKNTSYTTEYAASVKGRFTISRDNSKNTLYLQMNSLRAEDTAVYYCAREDGSYMTDYFAYWGQGTLVTVSS VL: DIELTQPPSVSVAPGQTARISCSGDNIGHYYVSWYQQKPGQAPVLVIYSDSNRPSGIPERFSGSNSGNTATLTISGTQAEDEADYYCQSYNGTYVFGGGTKLTVLG displays ELISA CD38 Fc-Fusion protein (% Reactivity of MOR03087) of 56

// sample MOR06201 IgG (antibody, V domains shown, copies: 2 + 2) VH: QVQLVESGGGLVQPGGSLRLSCAASGFTFSSYYMNWVRQAPGKGLEWVSAISMHGDTTYYADSVKGRFTISRDNSKNTLYLQMNSLRAEDTAVYYCARDLPLVYTGFAYWGQGTLVTVSS VL: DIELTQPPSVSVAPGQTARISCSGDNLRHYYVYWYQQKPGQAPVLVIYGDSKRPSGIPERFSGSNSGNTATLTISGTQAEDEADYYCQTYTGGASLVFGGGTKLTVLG , its ELISA CD38 Fc-Fusion protein (% Reactivity of MOR03087) was 137
